Below, each entry is listed with its recorded melting point.
Just the number in °C, nothing appended.

Worked set:
[[record]]
molecule = "CC(=O)NS(=O)(=O)c1ccc(NC(=O)c2ccccc2C(=O)O)cc1"
readout_kind = "melting point"
observed_result = 196

[[record]]
molecule = "Nc1ncnc2c1ncn2[C@@H]1O[C@@H]2COP(=O)(O)O[C@H]2[C@H]1O"
readout_kind = "melting point"
observed_result = 220

[[record]]
molecule = "Nc1cccc([N+](=O)[O-])c1N"
readout_kind = "melting point"
observed_result = 158

[[record]]
molecule = "CC(C(=O)O)c1ccc(C(=O)c2cccs2)cc1 (centres undefined)"
readout_kind = "melting point"
observed_result = 124

[[record]]
molecule = "Brc1ccc(Br)cc1"
readout_kind = "melting point"
observed_result = 87.3

[[record]]
molecule = "Cc1c2ccccc2nc2ccccc12"
readout_kind = "melting point"
observed_result = 118

[[record]]
molecule = "CC(C(N)=O)n1nc2ccccc2n1 (centres undefined)"
readout_kind = "melting point"
observed_result = 170

[[record]]
molecule = "Oc1ccc(Br)cc1Br"
readout_kind = "melting point"
observed_result = 38

[[record]]
molecule = "Cc1cc(O)c(C2CC3CCC2(C)C3(C)C)cc1C (centres undefined)"
readout_kind = "melting point"
observed_result = 95

[[record]]
molecule = "CCCCC(=O)CCCC"
readout_kind = "melting point"
observed_result = -3.8


INPUT: Look up melting point: "CCCCCCC(=O)OC"
OUTPUT: -56

INPUT: Returns the measured melting point for the input molecule. Input: "CC=CC=CCO"
OUTPUT: 30.5

INPUT: melting point lookup needed for COc1cc2c(cc1OC)C1CC(=O)C(CC(C)C)CN1CC2 (centres undefined) , thanks.
OUTPUT: 128

INPUT: Consider the molecule "Cc1ccc(Cl)c([N+](=O)[O-])c1" and give its measured melting point.
OUTPUT: 7

INPUT: melting point lookup needed for "O=C(O)CNC(=S)C(=S)NCC(=O)O" , thanks.
OUTPUT: 220

INPUT: Item "O=C[C@H](O)[C@@H](O)[C@H](O[C@@H]1O[C@H](CO)[C@@H](O)[C@H](O)[C@H]1O)[C@H](O)CO" has what recorded melting point?
OUTPUT: 240

* * *

Readout Kind: melting point

INPUT: Consider the compound shown here: "NNC(=O)c1ccccc1O" What is its recorded melting point?
OUTPUT: 148 °C

INPUT: # input compound: "CCOc1ccc(NS(=O)(=O)c2ccc(N)cc2)nn1" ; wanted: its melting point
OUTPUT: 183 °C

INPUT: If you can, please state the reported melting point value of "CCC1(CC)C(=O)NC(=S)NC1=O" .
OUTPUT: 180 °C

INPUT: Fill in: melting point of "CCc1cccc2c1CCCC2" is ___
OUTPUT: -44.5 °C

INPUT: Recorded melting point of "C/C(=C\C(=O)O)C1CCCCC1" , please.
OUTPUT: 85.5 °C

* * *

Reported melting point maps to class as: bottom end (below -2 °C), midrange (-2 °C to below 50 °C), top end (50 °C or more)

Field: example entries. Status: answers known.
[[record]]
molecule = "C#CC(C)OC(=O)Nc1cccc(Cl)c1 (stereo not drawn)"
assigned_class = "midrange"

[[record]]
molecule = "CCOc1cc(Cl)c(N)c(Cl)c1"
assigned_class = "midrange"

[[record]]
molecule = "Clc1cc2c(c(Cl)c1Cl)Oc1c(cc(Cl)c(Cl)c1Cl)O2"
assigned_class = "top end"

[[record]]
molecule = "O=C(O)[C@H](O)[C@@H](O)[C@H](O)[C@H](O)CO"
assigned_class = "top end"

[[record]]
molecule = "Cc1cccc(Nc2ccccc2)c1"
assigned_class = "midrange"


INPUT: Dear colleague, I would appreciate it if you could identify the bin for CNc1ccc2oc(C[C@@H]3OC4(CC[C@@H]3C)O[C@H](C(C)C(=O)c3ccc[nH]3)[C@H](C)C[C@H]4C)nc2c1C(=O)O (stereo partly drawn) and reply at your convenience.
OUTPUT: top end

INPUT: Which bin, given its melting point, does "FC(F)(F)C1(F)C(F)(F)C(F)(F)C(F)(F)C(F)(F)C1(F)F" occupy?
OUTPUT: bottom end

INPUT: The entry to classify is "O=C1CCCCCCCC1" ; which class holds it?
OUTPUT: midrange

INPUT: Bin this entry: "ClCCCCCl"
OUTPUT: bottom end

INPUT: Any idea which band "O=C(c1ccc(Cl)cc1)c1ccc(Cl)cc1" is in?
OUTPUT: top end
